# measurement-notes: A549 NSCLC cell proliferation inhibitors – ATP luminescence, human non-small cell lung line, primary screen (AID 371);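 note: compound exposure lasted 72 h before the ATP read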
# test-context: at 10 µM, active compounds read high
Hit rate of the full screen: of about 3,300 compounds, about 280 (8.5%) were called active. The sample holds actives, similar compounds and a random draw of the others, so the mix is not that of the screen.
Decision: growth inhibition compared against 20%; not below it gives Satisfied, below it gives Not satisfied.

O=C(c1ccco1)N1CCN(c2ncnc3c2[nH]c2ccccc23)CC1 :: Satisfied
OC1(c2cccc(C(F)(F)F)c2)CCN(c2ncnc3c2[nH]c2ccccc23)CC1 :: Satisfied
CC(NCCc1ccc(O)cc1)C(O)c1ccc(O)cc1 (stereo not drawn) :: Not satisfied

# bool: growth inhibition of O=C(O)C1[C@H]2C(=O)N(Cc3cccs3)C[C@]23C=C[C@H]1O3 (stereo partly drawn) >= 20%
Not satisfied

# bool: growth inhibition of `CCCCc1oc2ccccc2c1C(=O)c1cc(I)c(OCCN(CC)CC)c(I)c1` >= 20%
Satisfied

# bool: growth inhibition of Cc1ccc2[nH]c3c(c2c1)CCCC3C(N)=O (stereo not drawn) >= 20%
Not satisfied

# bool: growth inhibition of CCOc1ccc(/C(O)=C2/C(=O)C(=O)N(CCN(C)C)C2c2ccccc2)cc1Cl (stereo not drawn) >= 20%
Not satisfied

# bool: growth inhibition of CCN1CCCC1Cn1cnc2c([nH]c3ccc(C)cc32)c1=O (stereo not drawn) >= 20%
Not satisfied
